test system: MDA-MB-435 melanoma; test: NCI-60 one-dose screen, 48 h; settings: 10 µM unless noted
The panel holds about 83,000 compounds, 20% with a hit somewhere; the sample as a whole holds those more often. Activity calls are given as the source filed them. Rule for the calls: active = growth percent below 10; inactive = the rest.
Permitted responses: Yes for active, No for inactive

Challenge: What is the recorded call for this compound in the test? CCOC(=O)[C@@H](C)C[C@H](Cc1ccccc1)NC(=O)c1csc([C@@H](C[C@H](C(C)C)N(C)C(=O)[C@@H](NC(=O)[C@H]2CCCCN2C)C(C)(C)C)OC(C)=O)n1
Response given: Yes

Challenge: What is the recorded call for this compound in the test? O=C1N[C@@H]2[C@@H](O)[C@@H](O)[C@H](O)C[C@H]2c2cc3c(c(O)c21)OCO3
Response given: Yes

Challenge: What is the recorded call for this compound in the test? CCCC(C)C1(CC)C(=O)NC(=O)N(C)C1=O (stereo not given)
Response given: No

Challenge: What is the recorded call for this compound in the test? COc1ccc(/C=C\c2cc(OC)c(OC)c(OC)c2)cc1NC(=O)/C=C/c1ccc(OC)c(OC)c1
Response given: Yes

Challenge: What is the recorded call for this compound in the test? Clc1ccc(N2COOC3(OOC2)C2CC4CC(C2)CC3C4)cc1
Response given: No

Challenge: What is the recorded call for this compound in the test? Cc1cnc(/C=C/C(=O)O)cc1-c1cc2c(cc1C)C(C)(C)CCC2(C)C
Response given: No

Challenge: What is the recorded call for this compound in the test? CC[C@H](C)[C@@H]1OC(=O)C(C)(C)[C@H](O)[C@H](Cc2ccccc2)OC(=O)[C@H](C(C)C)OC(=O)[C@@H](NC(=O)c2cccc(NC=O)c2O)[C@@H](C)OC1=O
Response given: No

Challenge: What is the recorded call for this compound in the test? CCOP(=O)(NC[C@H]1O[C@](O)(CO)[C@@H](O)[C@@H]1O)OCC
Response given: No

Challenge: What is the recorded call for this compound in the test? COc1cc2c(cc1OCCCCCn1c(-c3ccco3)nc3ccccc31)N=C[C@@H]1CCCN1C2=O
Response given: Yes

Challenge: What is the recorded call for this compound in the test? O=C1CNC(c2ccccc2)c2cc(Cl)ccc2N1 (stereo not given)
Response given: No

Challenge: What is the recorded call for this compound in the test? O=C([O][Hg][c]1ccccc1)c1ccccc1
Response given: Yes

Challenge: What is the recorded call for this compound in the test? CN[C@@]1(c2ccccc2Cl)CCCC[C@@H]1NCC1CCCO1 (stereo not given in full)
Response given: No

Challenge: What is the recorded call for this compound in the test? CCOC(=O)CCN(C)C1=Nc2ccc(Cl)cc2C(c2ccccc2)=[N+]([O-])C1
Response given: No

Challenge: What is the recorded call for this compound in the test? CC(=O)O[C@H](C[C@H](C(C)C)N(C)C(=O)[C@@H](NC(=O)[C@H]1CCCCN1C)C(C)C)c1nc(C(=O)N[C@@H](Cc2ccccc2)C[C@H](C)C(=O)O)c(C)s1
Response given: Yes

Challenge: What is the recorded call for this compound in the test? O=[N+]([O-])c1cnc[nH]1
Response given: No

Challenge: What is the recorded call for this compound in the test? C[C@@]1(CCCCCCCCCc2ccc(O)cc2)C[C@]2(C)OC(=O)C[C@@H]2OO1
Response given: No

Challenge: What is the recorded call for this compound in the test? COc1ccc(C(O)(C(=O)O)c2ccc(OC)cc2)cc1
Response given: No

Challenge: What is the recorded call for this compound in the test? CCC(=O)Nc1ccc(Cl)c(Cl)c1
Response given: No

Challenge: What is the recorded call for this compound in the test? CC(=O)c1ccc(C(=O)NCC2CCC3(CC2)OOC2(CCCCC2)OO3)cc1
Response given: No

Challenge: What is the recorded call for this compound in the test? O=C(O)c1c(Cl)n(Cc2ccc(O)cc2)c2ccc(O)cc12
Response given: No

###

Task for the reader: assign each of the following molecules its reported growth.
tested on: M14 melanoma; assay: NCI-60 one-dose screen, 48 h (100 = growth as untreated, 0 = no growth, -100 = all killed); conditions: 10 µM unless noted
About 83,000 compounds went through this panel and 20% of them were active in at least one assay; those are over-represented in the sample as a whole.
Quick reminder: number only, in %, skip the unit.

Challenge: Please look up its growth: CC[C@H](C)[C@H](NC(=O)c1ccccn1)C(=O)N(C)[C@H](C[C@@H](OC(C)=O)c1nc(C(=O)N[C@@H](Cc2ccccc2)C[C@H](C)C(=O)OC)cs1)C(C)C
Response given: 4.96

Challenge: Please look up its growth: O=[N+]([O-])CC(O)C(Cl)(Cl)Cl (stereo not given)
Response given: 104

Challenge: Please look up its growth: COC(=O)C12CC(NC(=O)c3csc([C@@H](C[C@H](C(C)C)N(C)C(=O)[C@@H](NC(=O)[C@H]4CCCCN4C)C4CC4)OC(C)=O)n3)(C1)C2
Response given: 14.8

Challenge: Please look up its growth: Cc1cc(-c2nc3cc(F)ccc3[se]2)cc(F)c1N
Response given: 90.3

Challenge: Please look up its growth: NC1CC2CCCCC2CC1(O)c1ccccc1 (stereo not given)
Response given: 100

Challenge: Please look up its growth: O=C(O)C(Cl)(Cl)C(F)(F)F
Response given: 105

Challenge: Please look up its growth: CNC(=O)Oc1ccc(C(C)(C)C)cc1OC(=O)NC
Response given: 93.3

Challenge: Please look up its growth: C[C@]12CC[C@H]3[C@@H](CC4SC(N)=NC45C/C(=N/NC(N)=O)CC[C@]35C)[C@@H]1CCC2=O (stereo not given in full)
Response given: -51.1

Challenge: Please look up its growth: CCCCCCCCC(CO)NCCc1ccccc1 (stereo not given)
Response given: 92.5

Challenge: Please look up its growth: CC12CCC(O)CC1=CCC1C2CCC2(C)C(O)CCC12 (stereo not given)
Response given: 106

###

system: HCT-116 colon; test: NCI-60 one-dose screen, 48 h (100 = growth as untreated, 0 = no growth, -100 = all killed); details: 10 µM unless noted
Compounds without any hit were thinned out: in the full panel of roughly 83,000, 20% have a hit.
Task for the reader: assign each of the following molecules its reported growth.
Quick reminder: number only, in %, skip the unit.

Challenge: Please look up its growth: NC(=S)c1cn(C2OC(CO)C(O)C2O)c2ncnc(N)c12 (stereo unspecified)
Response given: -16.3

Challenge: Please look up its growth: CN[C@]1(c2ccccc2Cl)CCCC[C@H]1NCCCN1CCN(C)CC1
Response given: 97.8

Challenge: Please look up its growth: CCC1CN1CCCCN1CC1CC (stereo unspecified)
Response given: 98.7

Challenge: Please look up its growth: O=C1OCC2=C1C(c1ccccc1)c1cc3c(cc1N2)OCO3 (stereo unspecified)
Response given: 4.53

Challenge: Please look up its growth: CCC(O)(CN)c1ccccc1 (stereo unspecified)
Response given: 99.8

Challenge: Please look up its growth: CN1C(=O)C(=Cc2cn(Cc3ccccc3)c3ccccc23)C(=O)N(C)C1=O
Response given: 71

###

Test system: 786-0 renal
Assay: NCI-60 one-dose screen, 48 h
Conditions: 10 µM unless noted
Protocol: Cells are grown in 96 well plates and exposed to the test compound for 48 hours. Compounds are tested at a single concentration, which is 10^-5 M for most compounds. The reported endpoint is percent growth (GI% or GIPRCNT), where numbers from 0 - 100% represent growth inhibition, and numbers from -100% - 0 represent cell death. For example, a value of 40 represents 60% growth inhibition. A value of 0 means no net growth occurred over the course of the experiment. […]
The panel holds about 83,000 compounds, 20% with a hit somewhere; the sample as a whole holds those more often. Active and inactive are the calls of the source. Rule for the calls: active = growth percent below 10; inactive = the rest.
Permitted responses: 1.0 = active, 0.0 = inactive

Challenge: What is the recorded call for this compound in the test? COC(=O)[C@H](C[C@H](Cc1ccccc1)NC(=O)c1csc([C@@H](C[C@H](C(C)C)N(C)C(=O)[C@@H](NC(=O)[C@H]2CCCCN2C)C(C)C)OC(C)=O)n1)NC(=O)OCc1ccccc1
Response given: 0.0

Challenge: What is the recorded call for this compound in the test? Cc1cc(N(CCCl)CCCl)ccc1C=Nc1cccnc1
Response given: 0.0

Challenge: What is the recorded call for this compound in the test? O=C(Nc1ccc(Cl)cc1)Nc1nccs1
Response given: 0.0

Challenge: What is the recorded call for this compound in the test? O=C1NC(=O)C(=Cc2cccn2CCCCCn2c3ccccc3c(=O)c3ccccc32)C(=O)N1
Response given: 0.0

Challenge: What is the recorded call for this compound in the test? COc1ccc(/C=C\c2cc(OC)c(OC)c(OC)c2)cc1OCC(=O)Nc1nc2ccc(OC(F)(F)F)cc2s1
Response given: 0.0

Challenge: What is the recorded call for this compound in the test? CCCCCN(CCCCC)CC(O)c1cc(Cl)ccc1OC (stereo not drawn)
Response given: 0.0

Challenge: What is the recorded call for this compound in the test? COC(=O)[C@@]1(O)C[C@H]2O[C@]1(C)n1c3ccccc3c3c4c(c5c6ccccc6n2c5c31)C(=O)NC4
Response given: 1.0

Challenge: What is the recorded call for this compound in the test? O=C(O)C1C(C(=O)O)C2(Cl)C(Cl)=C(Cl)C1(Cl)C2(Cl)Cl.[Hg] (stereo not drawn)
Response given: 0.0

Challenge: What is the recorded call for this compound in the test? NC1CC2CCCCC2CC1(O)c1ccccc1 (stereo not drawn)
Response given: 0.0

Challenge: What is the recorded call for this compound in the test? COc1cc2c(c(OC)c1OC)-c1ccc([O-])c(=O)cc1[C@@H](NC(C)=O)CC2.COc1cc2c(c(OC)c1OC)-c1ccc([O-])c(=O)cc1[C@@H](NC(C)=O)CC2.[Cu+2]
Response given: 0.0

Challenge: What is the recorded call for this compound in the test? O=[N+]([O-])/C=C\c1ccc(Cl)c(Cl)c1
Response given: 0.0

Challenge: What is the recorded call for this compound in the test? C1CCC2(CC1)OOCNCOO2
Response given: 0.0

Challenge: What is the recorded call for this compound in the test? Cn1cc(-c2csc(-c3cn(CCCCN4CCCCC4)c4ccc(F)cc34)n2)c2cccnc21
Response given: 1.0

Challenge: What is the recorded call for this compound in the test? O=C(Nc1ccc([N+](=O)[O-])cc1)C(Cl)(Cl)Cl
Response given: 0.0

Challenge: What is the recorded call for this compound in the test? C=COC(=O)CCN1CC1
Response given: 0.0

Challenge: What is the recorded call for this compound in the test? O=C(c1cccc(O)c1O)c1cn(Cc2ccc(F)cc2)c2cccc(O)c12
Response given: 0.0

Challenge: What is the recorded call for this compound in the test? O=C(CC1(O)C(=O)N(Cc2ccccc2)c2ccccc21)c1ccc(C(=O)NCC2CCC3(CC2)OOC2(CCCCC2)OO3)cc1 (stereo not drawn)
Response given: 1.0

Challenge: What is the recorded call for this compound in the test? CN(C)C(=O)Oc1ccccc1-c1ccccc1
Response given: 0.0

Challenge: What is the recorded call for this compound in the test? N#C[Se]CCN1C(=O)c2ccccc2C1=O
Response given: 0.0

Challenge: What is the recorded call for this compound in the test? CCCCCCC(=O)NC1=C(N2CC2)C(=O)C(NC(=O)CCCCCC)=C(N2CC2)C1=O
Response given: 0.0

Challenge: What is the recorded call for this compound in the test? CO[C@H]1CC[C@@]2(C)C(=CC[C@@H]3[C@@H]2CC[C@]2(C)C(=O)C(=O)C[C@@H]32)C1
Response given: 0.0

Challenge: What is the recorded call for this compound in the test? COc1ccc(C2=CC(c3ccc(OC)c(OC)c3)c3c(c4ccccc4oc3=O)O2)cc1OC (stereo not drawn)
Response given: 0.0

Challenge: What is the recorded call for this compound in the test? CCCOC(=O)N[C@H]1CCc2c(Br)c(OC)c(OC)c(OC)c2-c2ccc(SC)c(=O)cc21
Response given: 1.0

Challenge: What is the recorded call for this compound in the test? COC(=O)N[C@H]1CCc2c(Br)c(OC)c(OC)c(OC)c2-c2ccc(SC)c(=O)cc21
Response given: 0.0

Challenge: What is the recorded call for this compound in the test? Cn1cc(-c2csc(-c3cn(CCCCN4CCCCC4)c4ccccc34)n2)c2cccnc21
Response given: 1.0

Challenge: What is the recorded call for this compound in the test? O=C1C(=Cc2cn(Cc3ccccc3)c3ccccc23)C(=O)N(Cc2ccccc2)C(=O)N1Cc1ccccc1
Response given: 0.0

Challenge: What is the recorded call for this compound in the test? Fc1c[c-]c(-c2ccccn2)c(F)c1.[CH3-].[Pt+2].c1ccc([PH+](c2ccccc2)c2ccccn2)cc1
Response given: 1.0

Challenge: What is the recorded call for this compound in the test? COC(=O)[C@@H](C)C[C@H](Cc1ccccc1)NC(=O)c1csc([C@@H](C[C@H](C(C)C)N(C)C(=O)[C@@H](NC(=O)[C@H]2CCCCN2C)C(C)C)OC(C)=O)n1
Response given: 1.0

Challenge: What is the recorded call for this compound in the test? NC(=O)C(Br)c1ccccc1 (stereo not drawn)
Response given: 0.0

Challenge: What is the recorded call for this compound in the test? CCC1(C(C)C)C(=O)NC(=S)NC1=O
Response given: 0.0

Challenge: What is the recorded call for this compound in the test? CCCCCC1(CCBr)C(=O)NC(=O)NC1=O
Response given: 0.0

Challenge: What is the recorded call for this compound in the test? CC12CCC3C(CCC4Cc5[nH]c6ccccc6c5CC43C)C1CCC2O (stereo not drawn)
Response given: 0.0

Challenge: What is the recorded call for this compound in the test? CC[C@H](C)[C@H](NC(=O)c1cccn1C)C(=O)N(C)[C@H](C[C@@H](OC(C)=O)c1nc(C(=O)N[C@@H](Cc2ccccc2)C[C@H](C)C(=O)OC)cs1)C(C)C
Response given: 0.0

Challenge: What is the recorded call for this compound in the test? Oc1c(O)c(Cl)c(Cl)c(Cl)c1Cl
Response given: 0.0

Challenge: What is the recorded call for this compound in the test? Cn1cc(-c2csc(-c3cn(CCN4CCOCC4)c4ccccc34)n2)c2cccnc21
Response given: 0.0

Challenge: What is the recorded call for this compound in the test? O=C(CC1(O)C(=O)N(Cc2ccccc2)c2ccc(Br)cc21)c1ccc(C(=O)NCC2CCC3(CC2)OOC2(CCCCC2)OO3)cc1 (stereo not drawn)
Response given: 1.0

Challenge: What is the recorded call for this compound in the test? c1ccc(CSC(c2ccccc2)c2ccccc2)cc1
Response given: 0.0

Challenge: What is the recorded call for this compound in the test? CC12CC=CCC1CCC1C2CCC2(C)C(c3ccc(=O)oc3)CCC12O (stereo not drawn)
Response given: 1.0
